biological target: D(4) dopamine receptor (Homo sapiens); test: Antagonist activity at human D4 receptor
Sequence (P21917 whole entry): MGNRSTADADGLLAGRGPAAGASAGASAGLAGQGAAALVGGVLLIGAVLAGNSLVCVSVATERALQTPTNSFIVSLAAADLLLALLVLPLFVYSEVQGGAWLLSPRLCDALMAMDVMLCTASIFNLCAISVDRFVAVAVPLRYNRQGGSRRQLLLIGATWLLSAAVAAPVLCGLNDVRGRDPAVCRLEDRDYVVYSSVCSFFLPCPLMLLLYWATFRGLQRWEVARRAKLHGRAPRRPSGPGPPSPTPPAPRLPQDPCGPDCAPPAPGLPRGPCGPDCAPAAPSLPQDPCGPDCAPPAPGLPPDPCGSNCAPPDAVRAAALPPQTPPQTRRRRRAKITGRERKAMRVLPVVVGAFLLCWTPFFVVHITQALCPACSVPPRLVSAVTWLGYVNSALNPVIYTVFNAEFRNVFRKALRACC
property.measured: IC50

item_smiles=COc1ccc(-c2cc(C(=O)N[C@H]3CCCN(C)C3)nn2C)c(Cl)c1 target_entity="D(4) dopamine receptor (Homo sapiens)" recorded_value="1290 nM"

---

assay: Metabolic stability in human liver microsome assessed as clearance preincubated for 60 mins followed by NADPH addition and measured after 60 mins by LC-MS/MS analysis; format: ADME; conditions: liver microsomes, time 120 min, read-out: CLH
# microsomal CLint >= 10 µL/min/mg gives Met, anything below gives Not met

compound=CN1CCC[C@@H](NC(=O)c2cc(-c3ccc(C(F)(F)F)cc3)n(C)n2)C1 assigned_category=Met
compound=CN1CCC[C@H](NC(=O)c2cc(-c3ccc(C(F)(F)F)cc3)n(C)n2)C1 assigned_category="Not met"
compound="CN1CCC(NC(=O)c2cc(-c3ccc(C(F)(F)F)cc3)n(C)n2)C1 (racemic)" assigned_category=Met
compound=CN1[C@@H]2CCC[C@H]1C[C@H](NC(=O)c1cc(-c3ccc(C(F)(F)F)cc3)n(C)n1)C2 assigned_category="Not met"
compound=Cn1nc(C(=O)NCCN2CCCCC2)cc1-c1ccc(C(F)(F)F)cc1 assigned_category="Not met"

---

test: Metabolic stability in dog hepatocytes assessed as intrinsic clearance measured per 10^6 cells; assay type: ADME, cell-based, Canis lupus familiaris, Hepatocyte
property.measured: CLint (µL/min/1e6 cells)

item_smiles=COc1ccc(-c2cc(C(=O)N[C@H]3CCCN(C)C3)nn2C)c(Cl)c1 property_measured=CLint scale_unit="µL/min/1e6 cells" recorded_value=32.3

---

assay: Oral bioavailability in Sprague-Dawley rat 3 mg/kg by LC-MS/MS analysis; format: ADME, organism-based; details: in vivo
# bioavailability >= 20% gives class 1, anything below gives class 0

compound=CN(C)C1(CNC(=O)c2cc(-c3ccc(C(F)(F)F)cc3)n(C)n2)CCCC1 assigned_category="class 1"
compound=Cn1nc(C(=O)NCCN2CCCCC2)cc1-c1ccc(C(F)(F)F)cc1 assigned_category="class 1"
compound=CN1CCC[C@H](NC(=O)c2cc(-c3ccc(C(F)(F)F)cc3)n(C)n2)C1 assigned_category="class 0"
compound=CN1CCC[C@@H](NC(=O)c2cc(-c3ccc(C(F)(F)F)cc3)n(C)n2)C1 assigned_category="class 1"
compound=CN1CCC(NC(=O)c2cc(-c3ccc(C(F)(F)F)cc3)n(C)n2)CC1 assigned_category="class 1"
compound=CN1[C@@H]2CCC[C@H]1C[C@H](NC(=O)c1cc(-c3ccc(C(F)(F)F)cc3)n(C)n1)C2 assigned_category="class 1"
compound="CN1CCC(NC(=O)c2cc(-c3ccc(C(F)(F)F)cc3)n(C)n2)C1 (racemic)" assigned_category="class 0"

---

test: Metabolic stability in rat liver microsome assessed as clearance preincubated for 60 mins followed by NADPH addition and measured after 60 mins by LC-MS/MS analysis; assay type: ADME; details: liver microsomes, time 120 min, read-out: CLH
Form field: log10(microsomal CLint) (one value per entry).
property.measured: log10(microsomal CLint) (log10 of the value in µL/min/mg)

compound=CN1CCC[C@@H](NC(=O)c2cc(-c3ccc(C(F)(F)F)cc3)n(C)n2)C1 recorded_value=0.54
compound=CN1CCC[C@H](NC(=O)c2cc(-c3ccc(C(F)(F)F)cc3)n(C)n2)C1 recorded_value=0.40
compound=CN1[C@@H]2CCC[C@H]1C[C@H](NC(=O)c1cc(-c3ccc(C(F)(F)F)cc3)n(C)n1)C2 recorded_value=0.51
compound=Cn1nc(C(=O)NCCN2CCCCC2)cc1-c1ccc(C(F)(F)F)cc1 recorded_value=0.49
compound="CN1CCC(NC(=O)c2cc(-c3ccc(C(F)(F)F)cc3)n(C)n2)C1 (racemic)" recorded_value=1.49
